Value source: patent US20070178531A1

Listing of entries alongside the reported A450.
Biological target: T1, Human Id1: Histidine (human, UniProt P41134 1-155, limits assumed)
T1 construct: Fusion protein made in E. coli from vector pGW07; also called h-Id1: his; not shown: His tag
T1 sequence (looked up): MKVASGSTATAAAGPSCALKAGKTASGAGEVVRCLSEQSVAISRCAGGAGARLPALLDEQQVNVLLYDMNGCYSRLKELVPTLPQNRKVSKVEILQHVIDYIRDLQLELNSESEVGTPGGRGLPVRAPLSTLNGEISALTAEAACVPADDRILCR
Experiment: ELISA, Ab 0.050 µg/ml
Description: The rabbit monoclonal anti-human Id3 (clone #3-3) and the rabbit monoclonal anti-mouse/human Id3 (clones #6-1, 16-1, 17-3, and 42-1) produced in Example 6 were tested reactivity against the following antigens: mouse Id1:His, human Id1:His, mouse Id2:His, human Id2:His, mouse Id3:His, human Id3:His, mouse Id4:His, human Id4:His and GST. 1. […]
Measure name: A450 (A450)

[
  {
    "Binder": "rabbit monoclonal anti-mouse/human Id3, clone #BCH-4/#6-1 (antibody, V domains shown, Rabbit IgG from a rabbit hybridoma; also called m/h Id3 MoAb 6-1) VH: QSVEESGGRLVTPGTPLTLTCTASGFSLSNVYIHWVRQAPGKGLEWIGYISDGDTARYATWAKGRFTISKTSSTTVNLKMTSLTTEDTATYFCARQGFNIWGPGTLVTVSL VL: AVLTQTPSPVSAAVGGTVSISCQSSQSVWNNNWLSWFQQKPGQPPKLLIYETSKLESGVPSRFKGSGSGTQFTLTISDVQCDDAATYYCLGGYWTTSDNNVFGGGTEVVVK",
    "Scale unit": "A450",
    "Result value": 0.052
  },
  {
    "Binder": "rabbit monoclonal anti-human Id3, clone #BCH-4/#3-3 (antibody, V domains shown, Rabbit IgG from a rabbit hybridoma; also called h Id3 MoAb 3-3) VH: QSVEESGGRLVTPGTPLTLTCTVSGIDLSSYAMSWVRQAPGKGLEWIGVIFPSNNVYYASWAKGRFTISKTSTTVDLKITSPTTEDTATYFCASMGAFDSWGPGTLVTVSS VL: QVLTQTPSPVSAAVGGTVTINCQASQSIYNDNDLAWFQQKPGQPPKLLIYDASTLTSGVPSRFKGSGSGTQFTLTISDLDCDDAATYYCAARYSGNIYGFGGGTEVVVK",
    "Scale unit": "A450",
    "Result value": 0.05
  }
]
